Item-by-item account of Ki
Target Or Test System: UniProt O75116
Sequence (O75116 whole entry): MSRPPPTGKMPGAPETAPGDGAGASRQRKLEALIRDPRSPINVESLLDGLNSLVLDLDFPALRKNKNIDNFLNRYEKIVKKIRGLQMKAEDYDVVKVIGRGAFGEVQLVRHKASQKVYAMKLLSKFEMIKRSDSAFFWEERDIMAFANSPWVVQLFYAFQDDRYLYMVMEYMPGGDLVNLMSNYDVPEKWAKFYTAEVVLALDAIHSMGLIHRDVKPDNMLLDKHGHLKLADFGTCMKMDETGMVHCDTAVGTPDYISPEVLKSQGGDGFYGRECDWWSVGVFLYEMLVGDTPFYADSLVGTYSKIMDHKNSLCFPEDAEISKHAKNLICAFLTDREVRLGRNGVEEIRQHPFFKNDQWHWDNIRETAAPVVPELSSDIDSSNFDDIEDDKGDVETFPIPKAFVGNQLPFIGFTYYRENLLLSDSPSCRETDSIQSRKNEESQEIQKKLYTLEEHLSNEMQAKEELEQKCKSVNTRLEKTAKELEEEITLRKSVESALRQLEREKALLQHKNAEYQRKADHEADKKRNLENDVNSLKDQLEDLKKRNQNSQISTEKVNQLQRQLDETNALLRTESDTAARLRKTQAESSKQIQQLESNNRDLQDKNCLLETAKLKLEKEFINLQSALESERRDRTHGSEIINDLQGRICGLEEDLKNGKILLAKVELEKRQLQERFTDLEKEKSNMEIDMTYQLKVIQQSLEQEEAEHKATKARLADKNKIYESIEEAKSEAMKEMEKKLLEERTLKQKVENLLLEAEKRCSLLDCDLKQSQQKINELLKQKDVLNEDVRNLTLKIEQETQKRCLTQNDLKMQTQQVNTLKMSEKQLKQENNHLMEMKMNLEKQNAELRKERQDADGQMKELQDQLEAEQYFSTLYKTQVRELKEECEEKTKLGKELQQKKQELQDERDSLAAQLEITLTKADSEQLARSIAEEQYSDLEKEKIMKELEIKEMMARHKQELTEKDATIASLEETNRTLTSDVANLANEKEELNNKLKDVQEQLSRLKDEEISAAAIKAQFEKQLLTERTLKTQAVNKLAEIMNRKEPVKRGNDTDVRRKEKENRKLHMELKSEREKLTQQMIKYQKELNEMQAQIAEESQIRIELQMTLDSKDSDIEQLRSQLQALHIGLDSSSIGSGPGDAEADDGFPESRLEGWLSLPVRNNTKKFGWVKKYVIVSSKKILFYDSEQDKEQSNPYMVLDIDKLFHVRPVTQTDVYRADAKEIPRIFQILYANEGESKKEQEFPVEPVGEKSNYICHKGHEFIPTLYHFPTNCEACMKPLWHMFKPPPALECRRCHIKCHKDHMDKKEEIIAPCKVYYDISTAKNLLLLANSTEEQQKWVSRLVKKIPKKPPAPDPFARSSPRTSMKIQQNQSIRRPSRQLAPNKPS
Test Description: ROCK2 kinase assay (IMAP fluorescence polarization)
Assay type: biochemical
Stated Conditions: 1 μM ATP; read-out: ROCK2 Average Ki
The figure you give is taken to be in nM; do not add the unit.

The cases that follow already have their Ki on record.
- CN[C@H]1CCCN(c2ccnc3[nH]cc(-c4ccccn4)c23)C1: 272
- c1cc(-c2c[nH]c3nccc(N4CCC[C@@]5(CCCCN5)C4)c23)ncn1: 5.38
- c1ccc2c(-c3c[nH]c4nccc(N5CCCCC5)c34)n[nH]c2c1: 10000
- CNCC1CCCN(c2ccnc3[nH]cc(-c4cncnc4)c23)C1 (stereo not shown): 217
- NCC1CCN(c2ccnc3[nH]cc(-c4cncnc4)c23)CC1: 9.5

## Task What value of Ki has been reported for the following compound? CN[C@H]1CCCN(c2ccnc3[nH]cc(-c4cnsc4)c23)C1
## Result 36.4

## Task Another compound to look at: c1cncc(-c2c[nH]c3nccc(N4CCCCC4)c23)c1
## Result 90

## Task Another compound to look at: c1ncc(-c2c[nH]c3nccc(N4CCC[C@H](NC5CC5)C4)c23)cn1
## Result 184

## Task Another compound to look at: c1ncc(-c2c[nH]c3nccc(N4CC5CNCC5C4)c23)cn1 (stereo not shown)
## Result 199

## Task Another compound to look at: CC1(N)CCCN(c2ccnc3[nH]cc(-c4nccs4)c23)C1 (stereo not shown)
## Result 42

## Task Another compound to look at: CN1CCCN(c2ccnc3[nH]cc(-c4cncnc4)c23)CC1
## Result 161

Cited source: patent US11447505B1
